Molecular target: T1, LIAS (aa 28-372), tagless (UniProt O43766 28-372)
T1 construct: lipoic acid synthase (LIAS), residues 28-372, lacking the mitochondrial transit peptide; pDWSUMO; Cleavage of the SUMO tag by ULP1 leaves a Gly-His appendage at the N-terminus; Carries reconstituted Fe-S clusters; also called lipoic acid synthase; source: E. coli BL21 (DE3) carrying pDB1282, purified, iron-sulfur clusters reconstituted; not shown: His6-SUMO, N-terminal, cleaved
T1 sequence (looked up): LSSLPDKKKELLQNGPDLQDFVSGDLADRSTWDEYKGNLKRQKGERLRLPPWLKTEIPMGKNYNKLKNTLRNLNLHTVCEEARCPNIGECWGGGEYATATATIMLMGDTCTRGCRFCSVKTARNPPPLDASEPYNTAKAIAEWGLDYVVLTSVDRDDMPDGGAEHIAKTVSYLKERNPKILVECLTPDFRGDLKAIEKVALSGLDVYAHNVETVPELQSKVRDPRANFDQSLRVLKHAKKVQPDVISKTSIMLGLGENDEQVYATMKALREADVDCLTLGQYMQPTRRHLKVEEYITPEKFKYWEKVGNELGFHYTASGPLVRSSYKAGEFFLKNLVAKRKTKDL
Assay: Temperature-Related Intensity Change (TRIC) fluorescence; 100 nM Red-Tris-NTA-labelled His-tagged FDX1 WT or variant as target, tagless LIAS serially diluted (10 points from 63 µM); anaerobic; 25 mM MOPS pH 7.5, 125 mM KCl, 125 mM NaCl, 5% glycerol, 0.05% Tween; 30 min at room temperature, read at 22 °C; Dianthus NT.23
Details: both partners purified
Entries and their measured Kd follow.
RESULT_TYPE: Kd

binder="FDX1 D136R (aa 61-184), N-terminal hexa-histidine tag (domain or fragment, human, UniProt P10109 61-184, looked up, ferredoxin 1 (FDX1), human, residues 61-184, lacking the mitochondrial transit peptide; pET28a; Carries a reconstituted Fe-S cluster; Labelled with Red-Tris-NTA dye in the LIAS assay only; source: E. coli BL21 (DE3) carrying pDB1282, purified, iron-sulfur cluster reconstituted; not shown: His6, N-terminal, kept) SSSEDKITVHFINRDGETLTTKGKVGDSLLDVVVENNLDIDGFGACEGTLACSTCHLIFEDHIYEKLDAITDEENRMLDLAYGLTDRSRLGCQICLTKSMDNMTVRVPETVADARQSIDVGKTS" result_type=Kd result="4.5 µM"
binder="FDX1 D139A (aa 61-184), N-terminal hexa-histidine tag (domain or fragment, human, UniProt P10109 61-184, looked up, ferredoxin 1 (FDX1), human, residues 61-184, lacking the mitochondrial transit peptide; pET28a; Carries a reconstituted Fe-S cluster; Labelled with Red-Tris-NTA dye in the LIAS assay only; source: E. coli BL21 (DE3) carrying pDB1282, purified, iron-sulfur cluster reconstituted; not shown: His6, N-terminal, kept) SSSEDKITVHFINRDGETLTTKGKVGDSLLDVVVENNLDIDGFGACEGTLACSTCHLIFEDHIYEKLDAITDEENDMLALAYGLTDRSRLGCQICLTKSMDNMTVRVPETVADARQSIDVGKTS" result_type=Kd result="4.9 µM"
binder="FDX1 D136A (aa 61-184), N-terminal hexa-histidine tag (domain or fragment, human, UniProt P10109 61-184, looked up, ferredoxin 1 (FDX1), human, residues 61-184, lacking the mitochondrial transit peptide; pET28a; Carries a reconstituted Fe-S cluster; Labelled with Red-Tris-NTA dye in the LIAS assay only; source: E. coli BL21 (DE3) carrying pDB1282, purified, iron-sulfur cluster reconstituted; not shown: His6, N-terminal, kept) SSSEDKITVHFINRDGETLTTKGKVGDSLLDVVVENNLDIDGFGACEGTLACSTCHLIFEDHIYEKLDAITDEENAMLDLAYGLTDRSRLGCQICLTKSMDNMTVRVPETVADARQSIDVGKTS" result_type=Kd result="3.2 µM"
binder="FDX1 D139R (aa 61-184), N-terminal hexa-histidine tag (domain or fragment, human, UniProt P10109 61-184, looked up, ferredoxin 1 (FDX1), human, residues 61-184, lacking the mitochondrial transit peptide; pET28a; Carries a reconstituted Fe-S cluster; Labelled with Red-Tris-NTA dye in the LIAS assay only; source: E. coli BL21 (DE3) carrying pDB1282, purified, iron-sulfur cluster reconstituted; not shown: His6, N-terminal, kept) SSSEDKITVHFINRDGETLTTKGKVGDSLLDVVVENNLDIDGFGACEGTLACSTCHLIFEDHIYEKLDAITDEENDMLRLAYGLTDRSRLGCQICLTKSMDNMTVRVPETVADARQSIDVGKTS" result_type=Kd result="2.5 µM"
